Overview of reported growth inhibition across a group of compounds:
Assay: NCI Yeast Anticancer Drug Screen. Data for the mec2-1 strain (AID 157)
Conditions: S. cerevisiae mec2-1 strain, at 50.0 µM (retest, dose inferred, filed as 5.0), active compounds read high
Description: Growth inhibition of yeast strains with defined genetic alterations is measured as a screen for potential anti-cancer activity. Selected strains with alterations in DNA damage repair or cell cycle control were exposed to compounds and growth inhibition was measured relative to vehicle treated controls. The strain used in this assay is mec2-1
This is part of a sample that, as a whole, favours compounds with a hit. Of some 79,000 tested, about 15% had one in any assay.
Kindly provide the numeric value in % only, without the unit symbol.

Prompt: Which growth inhibition reading was recorded for the compound `Fc1ccc(CN2COc3c(ccc4cccnc34)C2)cc1` ?
Completion: 17

Prompt: Which growth inhibition reading was recorded for the compound CCN(CC)CCC(=O)NC1c2ccc(Cl)cc2Oc2c(C)cccc21 (centres undefined) ?
Completion: -7

Prompt: Which growth inhibition reading was recorded for the compound CCc1ccc(/C=C/C(=O)C2CN(CC)CCC2(O)/C=C/c2ccc(CC)cc2)cc1 (centres undefined) ?
Completion: 99

Prompt: Which growth inhibition reading was recorded for the compound Cc1ccc(S(=O)(=O)OC2COC3C(OS(=O)(=O)c4ccc(C)cc4)COC23)cc1 (centres undefined) ?
Completion: 4

Prompt: Which growth inhibition reading was recorded for the compound CC1(C)OC2COC3(CNO)OC(C)(C)OC3C2O1 (centres undefined) ?
Completion: 1

Prompt: Which growth inhibition reading was recorded for the compound `Cc1ccccc1Sc1ccccc1[N+](=O)[O-]` ?
Completion: 5

Prompt: Which growth inhibition reading was recorded for the compound `CC#CC#C/C=C1/C=CC(=O)O1` ?
Completion: 66

Prompt: Which growth inhibition reading was recorded for the compound CCCCC(O)(c1ccccc1)C(O)(c1ccccc1)c1c(F)c(F)c(F)c(F)c1F (centres undefined) ?
Completion: 99

Prompt: Which growth inhibition reading was recorded for the compound `Cc1[nH]nc(C(=O)N/N=C/c2ccccc2Cl)c1N=NN(C)C` ?
Completion: 93

Prompt: Which growth inhibition reading was recorded for the compound Cc1ccccc1C(CC(=O)O)C(C)c1ccccc1 (centres undefined) ?
Completion: 53

Continuing:
Prompt: Which growth inhibition reading was recorded for the compound `N#CSCCl` ?
Completion: 75

Prompt: Which growth inhibition reading was recorded for the compound `BrCN(CBr)c1ccc2c(c1)Cc1cc(Br)ccc1-2` ?
Completion: -4

Prompt: Which growth inhibition reading was recorded for the compound `COc1cccc2c1N[S@](=O)S2` ?
Completion: 94

Prompt: Which growth inhibition reading was recorded for the compound `C(/Cc1ccc2c(c1)OCO2)=N\NC1=NCCCCN1` ?
Completion: -5

Prompt: Which growth inhibition reading was recorded for the compound `COC(=O)CSC(=S)Nc1ccc(Cl)cc1` ?
Completion: 96

Prompt: Which growth inhibition reading was recorded for the compound `O=C(N/C(=C\c1nc2ccccc2s1)c1ccccc1O)c1ccccc1` ?
Completion: 30

Prompt: Which growth inhibition reading was recorded for the compound C/C(=N\NC(=S)N1CC(C)OC(C)C1)c1ncccn1 (centres undefined) ?
Completion: 100

Prompt: Which growth inhibition reading was recorded for the compound N#CN1CCCC(O)c2sc3ccccc3c2CC1 (centres undefined) ?
Completion: 17

Prompt: Which growth inhibition reading was recorded for the compound `O=[N+]([O-])c1ccc2c(c1)/C(=N\O)c1cc(Br)ccc1-2` ?
Completion: 24
